# experimentalSystem: ERR1 (also known as ERR-α or ERR-1) (Homo sapiens)
# Sequence (P11474 193-421 limits assumed): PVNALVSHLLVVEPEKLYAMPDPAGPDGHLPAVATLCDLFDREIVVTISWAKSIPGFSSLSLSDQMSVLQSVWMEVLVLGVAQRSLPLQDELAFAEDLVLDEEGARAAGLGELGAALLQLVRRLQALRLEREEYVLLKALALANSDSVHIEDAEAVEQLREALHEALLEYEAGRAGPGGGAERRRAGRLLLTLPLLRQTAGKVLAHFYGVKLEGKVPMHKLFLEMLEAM
# assayComment: TR-FRET assay (disruption of co-activator peptide binding)
# conditionDescription: 6His-tagged ERR1 LBD, GST-hSRC2 co-activator polypeptide; average of 3 independent experiments
pEC50: −log10 of the molar value.
Reported pEC50 values follow for various compounds
measuredAttribute: pEC50

[
  {
    "compound": "CC(C)(C)OC(=O)N1CCN(C2=NC(=O)/C(=C/c3ccc4c(c3)c(I)nn4Cc3ccc(C(F)(F)F)cc3C(F)(F)F)S2)C[C@@H]1CO",
    "measured": 7.96
  },
  {
    "compound": "NC1CN(C2=NC(=O)/C(=C/c3ccc4c(cnn4Cc4ccc(C(F)(F)F)cc4C(F)(F)F)c3)S2)C1",
    "measured": 7.23
  },
  {
    "compound": "O=C1N=C(N2CCOC(C(=O)O)C2)S/C1=C\\c1ccc2c(cnn2Cc2ccc(C(F)(F)F)cc2C(F)(F)F)c1 (stereo not drawn)",
    "measured": 7.71
  }
]
